Cited source for all entries: patent US20140080847A1

# protocol: Acute toxicity and tolerance (MTD) of a single oral dose in New Zealand white rabbits
# Assay type: in vivo, rabbit
# run_conditions: both sexes, New Zealand white, in vivo; rabbit, single oral dose
reported_property: LD50 at 14 days (mg/kg)
Give your result in mg/kg as a bare value.

Query: Endpoint output: LD50 at 14 days of CCC(C)CC(C)N (stereo not shown) [1,3-DMPA, 1,3-dimethylpentylamine, reference compound] . Value?
Reply: 324

---

# protocol: Acute toxicity and tolerance (MTD) of a single oral dose in New Zealand white rabbits
# Format: in vivo, rabbit
# run_conditions: both sexes, New Zealand white, in vivo; rabbit, single oral dose
Assignment: determine reported MTD at 14 days for the given molecules.

Query: Endpoint output: MTD at 14 days of CCC(C)CC(C)N (centres unmarked) [1,3-DMPA, 1,3-dimethylpentylamine, reference compound] . Value?
Reply: 150 to 300 mg/kg

Query: Next molecule: CC(C)CCC(C)N (racemic)
Reply: 250 to 350 mg/kg
